# key: entry, value: Percent Effect
- Tested target: Arginase-2, mitochondrial (Homo sapiens) (UniProt P78540)
- Sequence (whole entry): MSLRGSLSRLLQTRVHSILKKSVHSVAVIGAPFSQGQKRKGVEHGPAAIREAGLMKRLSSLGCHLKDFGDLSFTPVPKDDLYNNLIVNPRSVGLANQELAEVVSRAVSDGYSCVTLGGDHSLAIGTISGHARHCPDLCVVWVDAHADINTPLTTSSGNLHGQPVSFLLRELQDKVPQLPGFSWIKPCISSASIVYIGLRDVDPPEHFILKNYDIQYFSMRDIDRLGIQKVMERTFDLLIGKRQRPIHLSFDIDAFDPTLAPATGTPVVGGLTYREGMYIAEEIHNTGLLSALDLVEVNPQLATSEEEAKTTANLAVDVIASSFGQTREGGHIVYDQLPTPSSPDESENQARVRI
- Assay details: in vitro enzyme assay to detect the production of urea directly proportional to the activity of Arginase II
- Format: functional
- Design: scale not given: in the data most compounds retested in dose-response had high values
- Protocol conditions: 33.3 µM
Field: numeric (%). Do not append units.

Worked cases, answers included:
Q: Param readout= Percent Effect; system= Arginase-2, mitochondrial (Homo sapiens) (UniProt P78540); entry= Cc1nc(C)n(C2CCCN(C(=O)c3sccc3C3CC3)C2)n1 (configuration not stated) ; returns value.
A: 1.9

Q: Another molecule to check: NC(=O)c1ccc(S(=O)(=O)NC2CCN(Cc3ccccc3)C2=O)cc1 (configuration not stated)
A: -3.42

Q: Next molecule: `CNC(=O)c1ccc(OC2CCN(S(C)(=O)=O)CC2)c(Cl)c1`
A: 2.65

Q: And for Cc1nc(CN(C)C2CCN(Cc3nc4ccccc4s3)C2)no1 (configuration not stated) ?
A: 1.8

Q: Entry to check: COc1ccc2cc(C3CN(C(=O)C4CCOCC4)CCO3)ccc2c1 (configuration not stated)
A: 2.38

Next:
Q: Identify the measured Percent Effect of CC(NC(=O)NCc1cc[nH]n1)c1ccc2c(c1)CCC(=O)N2 (configuration not stated) for Arginase-2, mitochondrial (Homo sapiens) (UniProt P78540).
A: 0.712

Q: What about `CC(C)Oc1ncc(C(=O)N2CCC(NC(=O)C3CC3)CC2)cc1Cl` ?
A: -0.798

Q: Lookup Cn1cc(N2CCCC(NCc3cccc4c3OCCCO4)C2)cn1 (configuration not stated)
A: -4.01

Q: Another: CCOCC(O)CN1CCN(C(=O)c2ccnc(N(C)C)c2)CC1 (configuration not stated)
A: 1.43

Q: Repeat for the following molecule: `Cc1ccc(N2CC3(CCN(C(=O)c4ccoc4)C3)C2)nn1`
A: -143

Q: Ok, now `Cc1ccc(C(=O)O)cc1S(=O)(=O)Nc1nn(-c2ccccc2)cc1C`
A: 0.455

Q: Another: Cc1cnc(CN2CCOC(Cn3nc(C)nc3C)C2)cn1 (configuration not stated)
A: 3.42

Q: Next record, please: Cc1nc2ccccc2nc1CN1CCCC1Cn1cncn1 (configuration not stated)
A: 1.9

Q: Same question, `Cc1cccc(CN2C(=O)CC[C@@H]3[C@H]2CCN3CC2CCOCC2)n1` this time
A: 0.699

Q: Moving on to c1cnn(CC2CN(c3ncnc4sccc34)CCO2)c1 (configuration not stated)
A: 2.08

Q: Consider next the molecule `Cc1cc(NC(=O)NCCc2cccs2)n(C)n1` in the same way.
A: 4.42

Q: How about this molecule: `COc1ccc(CNCc2ccnc(N3CCOCC3)c2)c(OC)c1`
A: 3.21

Q: What about Cc1ccc(OCCNC(=O)C(C)n2cncn2)cc1 (configuration not stated) ?
A: 0.38

Q: Do the same for `O=S1(=O)C[C@@H]2[C@H](C1)N(Cc1ncc[nH]1)CCN2CC1CC1` please
A: 1.43

Q: And then `CCOCCn1nc(C)cc1C(=O)N1CC[C@](C)(O)[C@H](C)C1` , what is it?
A: -1.91

Q: Queued: `c1coc(CN2C[C@H](OCC3CCOCC3)[C@H]3COC[C@H]32)c1`
A: -0.955

Q: And CCC(O)CN1CCN(C(=O)c2ccnc(N(C)C)c2)CC1 (configuration not stated) ?
A: 14.3

Q: // repeat for Cc1nn(C)c(N2CCOCC2)c1CNC(c1cccs1)C(C)C (configuration not stated) and report
A: 1.8

Q: Moving on to `O=C(c1cnccn1)N1CCOC2(CCN(Cc3ccsc3)CC2)C1`
A: -52.1

Q: Param item: `CCn1cc(CN2CCCN(C(=O)c3ccn(C)c(=O)c3)CC2)cn1`
A: -0.632

Q: Thanks! And COCCc1noc(CN(C)C2CCCN(c3ccc(C)nn3)C2)n1 (configuration not stated) ?
A: 1.56

Q: Now try Cn1cc(CNC2CCCN(Cc3noc(C4CC4)n3)C2)cn1 (configuration not stated) .
A: 5.75

Q: Try this molecule too: `Cc1nnc(N2CCC(CN(C)C(C)C)CC2)c(C#N)c1C`
A: -4
